- Test system: EKVX
- protocol-text: NCI tumour cell line growth inhibition, 48 h
The source made the active and inactive calls. Rule as the data show it: active = GI50 up to about 1.1 µM and inactive = higher.
experimental-endpoint: GI50

{"columns": ["molecule", "GI50"],
 "data": [
  ["O=C1NC2(CCCC2)/C(=N\\O)C12CCCC2", "> 100 µM (inactive)"],
  ["C=CCC(OCCOCC)c1cc(OCCOCC)ccc1OC (configuration not stated)", "> 100 µM (inactive)"],
  ["C#CCn1c(=O)c2cc(OC)c(OC)cc2n(CC#C)c1=O", "> 10 µM (inactive)"]
]}

GI50 recorded for this molecule, CCOc1ccc(NCC2CC/C(=C\c3ccccc3OC)C2=O)cc1 (configuration not stated) , is 17.4 µM (inactive)

GI50 recorded for this molecule, COc1ccc(C2=NN(C(=O)c3ccc(Cl)cc3)C(O)(c3cc(F)c(Cl)cc3Cl)C2)cc1 (configuration not stated) , is 6.04 µM (inactive)

GI50 recorded for this molecule, COc1cccc(/C=N/C23CC4CC(CC(C4)C2)C3)c1 , is > 100 µM (inactive)

----------
- Test system: TK-10
- protocol-text: NCI tumour cell line growth inhibition, 48 h
Active and inactive are the calls of the source. Rule as the data show it: active = GI50 up to about 1.1 µM and inactive = higher.
Measured GI50 of individual entries

Solved entries (count: 5):
{"columns": ["compound", "GI50"],
 "data": [
  ["Cc1ccc(C)c(NC(=O)CC/C(=N\\NC(=O)C(=O)NN)C(C)C(=O)c2ccc(O)cc2)c1 (stereo not given)", "> 100 µM (inactive)"],
  ["CC(C)(C)OC(=O)N1C/C=C\\C(=O)C2(OCCO2)c2ccccc21", "24.3 µM (inactive)"],
  ["C/C(CC1SCCCS1)=C(/C)CC1SCCCS1", "> 100 µM (inactive)"],
  ["O=C1C2=C(c3ccccc31)C(c1ccc(Cl)cc1)N1C(=O)CCSC1=N2 (stereo not given)", "> 100 µM (inactive)"],
  ["CNC(=S)/N=c1/sc(NC)nc2sc3c(c12)CCCC3", "> 100 µM (inactive)"]
]}

Record Cn1c(=O)n(CC(Br)CBr)c(=O)n(CC(Br)CBr)c1=O (stereo not given) / TK-10, GI50 recorded as 55.5 µM (inactive)

Record O=C1[C@H]2ON(c3ccccc3)C(c3ccc(Cl)cc3)[C@H]2C(=O)N1c1ccc(Cc2ccc(N3C(=O)[C@@H]4ON(c5ccccc5)C(c5ccc(Cl)cc5)[C@@H]4C3=O)cc2)cc1 (stereo not given in full) / TK-10, GI50 recorded as > 100 µM (inactive)

----------
- Test system: Hs-578T
- protocol-text: NCI tumour cell line growth inhibition, 48 h
The source made the active and inactive calls. Cut-off read from the data, not from the text of the source: active = GI50 up to about 1.1 µM and inactive = higher.
experimental-endpoint: GI50

Solved entries (count: 3):
{"columns": ["compound", "GI50"],
 "data": [
  ["COc1cnc2oc3ccc(O)cc3c2c1-c1ccccc1", "> 100 µM (inactive)"],
  ["COC(=O)CCC(=O)NC1=C(Nc2ccccc2)C(=O)c2ccccc2C1=O", "7.18 µM (inactive)"],
  ["Cc1ccc(/N=N/c2cc(=O)[nH]c(=O)[nH]2)cc1C", "> 10 µM (inactive)"]
]}

GI50 recorded for this compound, Cn1c(=O)n(CC(Br)CBr)c(=O)n(CC(Br)CBr)c1=O (stereo unspecified) , is > 100 µM (inactive)

GI50 recorded for this compound, O=C(c1ccco1)N(C(=O)N1CCN(c2ccccc2)CC1)S(=O)(=O)c1ccccc1 , is 32 µM (inactive)

GI50 recorded for this compound, O=c1c2nc(-c3ccccc3)oc2n(-c2ccccc2)c(=O)n1-c1ccccc1 , is 21.9 µM (inactive)

GI50 recorded for this compound, O=c1c(C(c2ccc3ccccc3c2)c2c(O)oc3ccccc3c2=O)c(O)oc2ccccc12 , is 28.6 µM (inactive)

GI50 recorded for this compound, COC(=O)C1(SC)C2CCC3C2CCC31 (stereo unspecified) , is > 100 µM (inactive)

GI50 recorded for this compound, BrCC[N+]12CC[N+](CCBr)(CC1)C2 , is > 100 µM (inactive)

GI50 recorded for this compound, O=c1oc(-c2ccccc2)c(-c2ccccc2)n1-c1ccc(Br)cc1 , is 32.3 µM (inactive)

GI50 recorded for this compound, COc1ccc(OC)c([N+](=O)[O-])c1-c1nc2sccn2c1/C=N/N=C(N)N , is 26.7 µM (inactive)

----------
- Tested on: RPMI-8226
- protocol-text: NCI tumour cell line growth inhibition, 48 h
Activity calls are given as the source filed them. Rule as the data show it: active = GI50 up to about 1.1 µM and inactive = higher.
Measured GI50 of individual entries

Solved entries (count: 5):
{"columns": ["compound", "GI50"],
 "data": [
  ["CC(=O)Nc1ccc(-c2nc3ccccc3s2)cc1O", "21 µM (inactive)"],
  ["N#CC(/C(CCCC(=O)Nc1cccc([N+](=O)[O-])c1)=N/NC(=O)c1cc2ccccc2cc1O)c1ccccc1 (stereo not drawn)", "35.4 µM (inactive)"],
  ["CN(N=O)C(=O)N[C@H]1C(O)O[C@H](CO)[C@@H](O)[C@@H]1O (stereo partly drawn)", "565 µM (inactive)"],
  ["O=C(/C=C\\c1ccc(Cl)cc1Cl)c1cccs1", "3.61 µM (inactive)"],
  ["O[C@@H]1C=C[C@]23CCN(Cc4cc5c(cc42)OCO5)[C@@H]3C1", "50.7 µM (inactive)"]
]}

GI50 recorded for this compound, C/C(=N\Nc1nc2ccccc2o1)c1ccncn1 , is 0.109 µM (active)

GI50 recorded for this compound, COc1ccccc1NCc1nnc(CCCCCCCCc2nnc(CNc3ccccc3OC)o2)o1 , is > 100 µM (inactive)

GI50 recorded for this compound, Cc1ccc(NC(=O)C(=O)C(C#N)c2ccccc2C)cc1C (stereo not drawn) , is > 57.8 µM (inactive)

----------
- System: SK-MEL-5
- protocol-text: NCI tumour cell line growth inhibition, 48 h
The source made the active and inactive calls. No stated cut-off is given here; in the data, active = GI50 up to about 1.1 µM and inactive = higher.
Measured GI50 of individual entries

{"columns": ["compound", "GI50"],
 "data": [
  ["COc1ccc(/C=C2/CSC/C(=C/c3ccc(OC)c(OC)c3)C2=O)cc1OC", "2.44 µM (inactive)"],
  ["CCNCC(O)COc1ccc2c(c1)[n+]([O-])nc(N)[n+]2[O-] (stereo not given)", "24.8 µM (inactive)"],
  ["Nc1ccn(C2OC(CO)C(O)C2O)c(=O)c1 (stereo not given)", "> 625 µM (inactive)"],
  ["O=C1c2ccccc2C(=O)N1C/C=N/NS(=O)(=O)c1ccc2ccccc2c1", "> 100 µM (inactive)"],
  ["CCN(CC)CCNC(=O)c1cn2c(ccc3sc4ccccc4c(=O)c32)n1", "7.26 µM (inactive)"],
  ["O=C(CCN1CCCCC1)c1csc2ccccc12", "> 100 µM (inactive)"]
]}

GI50 recorded for this compound, COC1=CC(C2c3cc4c(cc3[C@@H](Nc3ccc([N+](=O)[O-])cc3)C3COC(=O)[C@H]23)OCO4)=CC(=O)C1=O (stereo not given in full) , is 3.48 µM (inactive)

GI50 recorded for this compound, CC12CCC(C(=O)OC1=O)C(C)(C)O2 (stereo not given) , is > 100 µM (inactive)

GI50 recorded for this compound, N#Cc1c(-c2ccco2)cc(-c2ccc(NCc3nc4ccccc4[nH]3)cc2)nc1N , is 16 µM (inactive)

GI50 recorded for this compound, CCOC(=O)C1(C(C)=O)OC(=O)c2cnccc21 (stereo not given) , is > 100 µM (inactive)

GI50 recorded for this compound, COc1ccc([C@@H]2ON(C)[C@H]3CN(C)C(=O)[C@@H]23)cc1 , is > 100 µM (inactive)

GI50 recorded for this compound, COc1ccc(C2=NN(C(=O)c3ccc(Cl)cc3)C(O)(c3cc(F)c(Cl)cc3Cl)C2)cc1 (stereo not given) , is > 100 µM (inactive)

----------
Measured GI50 of individual entries
- Test system: OVCAR-5
- protocol-text: NCI tumour cell line growth inhibition, 48 h
Calls of active or inactive are those of the source. No stated cut-off is given here; in the data, active = GI50 up to about 1.1 µM and inactive = higher.

Solved entries (count: 5):
{"columns": ["compound", "experimental-endpoint", "result"],
 "data": [
  ["CC1CC[C@@]2(OC1)OC1C[C@H]3[C@@H]4C/C(=N\\N(C)C)[C@@]5(O)CC(O)CC[C@]5(C)[C@H]4CC[C@]3(C)C1[C@@H]2C (stereo partly specified)", "GI50", "43.5 µM (inactive)"],
  ["Cc1ccc(F)c2c(=O)cc(-c3ccccc3)[nH]c12", "GI50", "> 100 µM (inactive)"],
  ["O=C1c2ccccc2C(=O)c2c(NCCNCCO)ccc(O)c21", "GI50", "3.4 µM (inactive)"],
  ["CCN(CC)CCNC(=O)c1cn2c(ccc3sc4ccccc4c(=O)c32)n1", "GI50", "8.57 µM (inactive)"],
  ["COc1ccc(C(=O)c2sc(Nc3ccc(Cl)cc3)nc2N)cc1", "GI50", "> 49.9 µM (inactive)"]
]}

Would you kindly look at the next entry?
GI50 recorded for this compound, COC(=O)/N=[N+](\[O-])C(c1ccccc1)c1ccccc1 , is > 100 µM (inactive)
